Experiment: amyloid nucleation score (Sup35N fusion, yeast selection) (log enrichment); library NNK1; higher = more nucleation; inactive = no reads after selection;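 further: zero at mode of non-aggregating sequences after 7 days selection at 30°C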

# query-sequence, amyloid nucleation score
measured = [
    ("SRDRNLVGLKLHVTVNKDVF", -1.41),
    ("AFFSAKIKAPFNDVFGYGFV", 0.289),
    ("VAFMDLTMRLDWGNFSNR", 4.34),
]

----------
Test: amyloid nucleation score (Sup35N fusion, yeast selection) (log enrichment); library NNK3; higher = more nucleation; inactive = no reads after selection

# substance, amyloid nucleation score
records = [
    ("NKLFEDSQAETS", "inactive"),
    ("AIFHGIRCSFMSSSLYTNDG", "inactive"),
    ("IALLHQKHIG", "inactive"),
    ("NQYQSLSRRCSAGALGALVV", "inactive"),
    ("LLLTDSMSHLRFSHNSCMQQ", 0.868),
    ("INQYRPAPIQEAPLF", "inactive"),
    ("HSSVSMGLVGGSTE", "inactive"),
    ("CIQSMRH", "inactive"),
    ("PTTMVPQPRPYSLRRTLAY", "inactive"),
    ("LTYHLFYMVADACVIWYDCS", 0.833),
    ("MGSGGYNIITDGQSFFSTMA", "inactive"),
    ("KSVNLHA", "inactive"),
    ("YCQVGINWFYGAGMKGYILS", "inactive"),
    ("MRNTFRTHSKQYHHG", "inactive"),
    ("NLMEHSIGLYAYYYSLNDCS", "inactive"),
    ("VGDVFSKRCHMRLFMNSLER", "inactive"),
    ("PGIPGPQLIYRDTILTLECM", 0.03),
    ("ANTFVSSWFVTTNRQKTERG", "inactive"),
    ("LIQPFFWCHCHDLAVDESGE", 1.66),
    ("VVSLRQLRW", "inactive"),
    ("CFPIASHGDSCGMIAA", "inactive"),
    ("NYVVRGRSQNVRNSEDNWGK", "inactive"),
    ("RCSLLRNIG", "inactive"),
    ("VSVYKNVAFFISWI", 1.58),
    ("MRHVCSCFRNDHGIDGVF", 0.06),
    ("EALTLTARR", "inactive"),
    ("HLRWMTEKGPVRNVCVRGCH", "inactive"),
    ("TVMLWAWEGRWYVRFVSPDR", "inactive"),
    ("HGVPYAIEASMLMFYLTFWR", "inactive"),
    ("QRNMVSEGATRCLSTDFPCL", "inactive"),
    ("FYSSSL", "inactive"),
]

----------
Listing: amyloid nucleation score of selected sequences
Test: amyloid nucleation score (Sup35N fusion, yeast selection) (log enrichment); library NNK1; higher = more nucleation; inactive = no reads after selection

# query-sequence, amyloid nucleation score
data = [
    ("TPAFTIFSWAIGEDYLFVEM", 0.777),
    ("CPASVMAKRYCQLKMGWWGP", 0.202),
]

----------
Catalogue of amyloid nucleation score readings, one per entry.
Experiment: amyloid nucleation score (Sup35N fusion, yeast selection) (log enrichment); library NNK1; higher = more nucleation; inactive = no reads after selection
value-type: amyloid nucleation score

# query-sequence, value-type, recorded-result
data = [
    ("NSRWSIFFASMCDIRLWCVV", "amyloid nucleation score", 0.755),
    ("IQLYIYCNMWKVGGKEWRAW", "amyloid nucleation score", 5.78),
    ("NLTFGYVGHK", "amyloid nucleation score", 3.91),
    ("FLNRYICKFDKVSQHGVRLW", "amyloid nucleation score", 0.261),
    ("NLSALLHDHFMGPIDLKFLT", "amyloid nucleation score", 1.8),
]

----------
Assay: amyloid nucleation score (Sup35N fusion, yeast selection) (log enrichment); library NNK2; higher = more nucleation; inactive = no reads after selection
value-type: amyloid nucleation score

# query-sequence, recorded-result
records = [
    ("SRSKGYLYGIMSAKLRCSLK", 0.206),
    ("NPWIAIKWHNTVFLRHIWQM", -0.494),
    ("DFALALVYTSMCLVVLYSML", 4.4),
    ("KFSKGSPGWWHQGSLCMVAM", 1.51),
    ("YLRFYRSIINILIKGSAFCV", -1.49),
    ("SNAVNCLLCVLTRDLIWMDA", 8.96),
    ("MTLVRFSRIGALKLCLQKES", -0.337),
    ("FKHVLDRN", -0.343),
    ("PDISKECLTIGNGSACELTD", 0.827),
    ("FGMFGSSYYIMY", 2.63),
    ("FQWQLMVFSADEFQNMAHMI", 0.182),
    ("KFMHRWPVYMVSTGLSLIVW", -0.458),
    ("LNVRLFSVFFSHTSSSHSEN", 3.21),
    ("MVPVFTGWRICVGGNCLARR", -0.162),
    ("QRMTNMSF", -1.27),
]

----------
Assay: amyloid nucleation score (Sup35N fusion, yeast selection) (log enrichment); library NNK1; higher = more nucleation; inactive = no reads after selection

# query-sequence, amyloid nucleation score
measured = [
    ("QVARLLSHAMWLVGKTL", "inactive"),
    ("FCFMYDGHEAWSKAFSRRNV", 0.196),
    ("HKFVRIDGEN", 1.54),
    ("FFTLHAFQ", "inactive"),
    ("NISSIASVWVCVKVRYVSYS", 0.432),
    ("WRAMAFVYLVASWSVGIRGR", 0.07),
    ("DSLVGVARDSMTSKQHNKNE", -0.112),
]

----------
Assay: amyloid nucleation score (Sup35N fusion, yeast selection) (log enrichment); library NNK3; higher = more nucleation; inactive = no reads after selection
value-type: amyloid nucleation score

# substance, recorded-result
rows = [
    ("SYFVAAVYYQDERNNGFCGQ", "inactive"),
    ("LDFDVGI", "inactive"),
    ("AIERIFHCGETVIFMTGHLL", "inactive"),
]

----------
Assay: amyloid nucleation score (Sup35N fusion, yeast selection) (log enrichment); library NNK1; higher = more nucleation; inactive = no reads after selection

# substance, amyloid nucleation score
measured = [
    ("CCPDSQIIRYNIYAVVYLRM", 1.92),
    ("PNFMMIWWVSTLRHNFTGLC", 2.19),
    ("YVSVVCLFVPDKFRNVTDL", 6.87),
    ("FWSVYKT", 0.744),
    ("DSQMYTMH", -0.054),
    ("AIPGGVTGTGWSSM", -0.221),
    ("WINFMSQWDPLGRQYVWHIQ", 1.81),
    ("FDKFKNSTVREFMWVEFSVG", 0.745),
    ("GDCFFQSYDTVFNFASR", 2.24),
    ("TYEPLTLMNGVLSVRSGPGI", -0.508),
    ("TRKLFTFMLDRMYLMVGRRL", -0.294),
    ("WFSWLVGEILCWCGGWVRSK", 0.404),
    ("GILDTLKVEVLGSVVHS", 1.01),
    ("MHPAVVYCPLIK", 0.735),
    ("LSIGFGNPVAS", -0.312),
]

----------
Test: amyloid nucleation score (Sup35N fusion, yeast selection) (log enrichment); library NNK3; higher = more nucleation; inactive = no reads after selection
value-type: amyloid nucleation score

# substance, value-type, recorded-result
rows = [
    ("GTNFALRHGMIILSRLWAYW", "amyloid nucleation score", "inactive"),
    ("YFAWNRKVNYTRS", "amyloid nucleation score", "inactive"),
    ("YVTSNSVDRTIKCSAFILIC", "amyloid nucleation score", "inactive"),
    ("YVIVLNR", "amyloid nucleation score", 2.3),
    ("ISLLYVFMLNR", "amyloid nucleation score", 2.11),
    ("VNQLPRVSGAPIGLLWVCVK", "amyloid nucleation score", "inactive"),
    ("LNGIEGSGY", "amyloid nucleation score", "inactive"),
    ("WALTRLRAPPF", "amyloid nucleation score", "inactive"),
    ("CPNMPSSTGTKPSNVMVSFS", "amyloid nucleation score", "inactive"),
    ("THCFNYILYSCSRAQSSCKY", "amyloid nucleation score", 2.29),
    ("YVITQQSSFSVTLYSSINFC", "amyloid nucleation score", 0.625),
    ("LFVRVCSANYFSWEYDSRVN", "amyloid nucleation score", "inactive"),
    ("NVRWLFLAVSCQL", "amyloid nucleation score", "inactive"),
    ("MSYSGTAHGDFLLRSCPARM", "amyloid nucleation score", "inactive"),
    ("GWVYDMVYYRSVKMGCAKRS", "amyloid nucleation score", 0.389),
    ("VFAMLLDMFDCARQWPAIPL", "amyloid nucleation score", "inactive"),
    ("TNGKPFYFPLAVMMSG", "amyloid nucleation score", "inactive"),
    ("TSCQLWETIIKMLDHARTGA", "amyloid nucleation score", "inactive"),
    ("YFSISLLTSK", "amyloid nucleation score", "inactive"),
    ("STYFLLILFEGKCFNCSVGK", "amyloid nucleation score", 1.38),
    ("WTEGST", "amyloid nucleation score", "inactive"),
    ("CGYEVIGNIFGM", "amyloid nucleation score", "inactive"),
    ("TFSYGSFLRSYLLMC", "amyloid nucleation score", "inactive"),
    ("FCSFEVRGCY", "amyloid nucleation score", 0.346),
    ("PSGSVCGPHHIPHVDVSGIS", "amyloid nucleation score", "inactive"),
    ("HKTLFIFS", "amyloid nucleation score", "inactive"),
    ("RPEAAYSVKYLVLV", "amyloid nucleation score", "inactive"),
    ("LIIMNVKSSSSHKRAGVST", "amyloid nucleation score", "inactive"),
    ("SYHYFGRYCGFR", "amyloid nucleation score", "inactive"),
    ("GYVGLHTFSWEDLENRMDKH", "amyloid nucleation score", "inactive"),
    ("FMSFLICNRILWSGG", "amyloid nucleation score", "inactive"),
    ("PYSIVSGPRIFYGCYHSFI", "amyloid nucleation score", "inactive"),
    ("IIQALVF", "amyloid nucleation score", "inactive"),
    ("RRTDGATEACISTSGPEYIV", "amyloid nucleation score", "inactive"),
    ("VLGNRRFSGLFGEYQGKTTG", "amyloid nucleation score", -0.593),
    ("MWITIS", "amyloid nucleation score", "inactive"),
    ("VSDYYDKYGLYFCWFWDGYK", "amyloid nucleation score", "inactive"),
    ("AIYAYTFAKRPSCEQATRVS", "amyloid nucleation score", "inactive"),
    ("FYCFIPGMSVMAPFVTSYYY", "amyloid nucleation score", 1.91),
    ("RRSTQLKRQYKSL", "amyloid nucleation score", "inactive"),
    ("ISKWESKSSSGLDFL", "amyloid nucleation score", "inactive"),
    ("IRNFSLKPISSNLNSL", "amyloid nucleation score", "inactive"),
    ("DRWVQAGSHTFTFLWDCERA", "amyloid nucleation score", "inactive"),
    ("CVSNISSFGKLEFTYVIEVW", "amyloid nucleation score", "inactive"),
    ("TDVLELVSTHCRYGFSVPQP", "amyloid nucleation score", "inactive"),
    ("FESSGAGRFRSIWYGYMRVF", "amyloid nucleation score", "inactive"),
]

// provenance: the supplement of paper PMC12042874
